Below is a list of entries, each paired with its recorded %Inh value.
System: PRKCH;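 note: KINOMEscan kinase panel screen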
RUN PARAMETERS: concentration: 1 μM, replicates: in singlicate; n = 1
Give the value, in units of %, as a plain number.

The cases that follow already have their %Inh on record.
>>> df
                                   compound  number
0  COc1cccc(C2=C(Nc3cc(Cl)c(O)c(Cl)c3)C(=O)NC2=O)c1 [SB-390767]       0
1  COc1cccc(NC(=O)Nc2ccc(C)c(-c3ccc(C(=O)Nc4ccncc4)cc3)c2)c1 [GSK1398474]      14
2   c1ccc(-c2ccnc3[nH]ccc23)cc1 [SB-693578]       0
3  Nc1cccc(-c2ccc3c(N)n[nH]c3c2)n1 [GSK2192730]       0

Prompt: // returns reported %Inh for input Fc1ccc(-c2nc3n(c2-c2ccncc2)CCS3)cc1 [GI98581]
Response: 2
